- System: M19-MEL
- ASSAY SUMMARY: NCI tumour cell line growth inhibition, 48 h
The source made the active and inactive calls. Rule as the data show it: active = GI50 up to about 1.1 µM and inactive = higher.
GI50 listing for selected compounds.

Solved entries (count: 2):
- COc1ccc2nc(NC(=O)C(=O)C(C#N)c3ccc([N+](=O)[O-])cc3)sc2c1 (stereo not drawn): > 100 µM (inactive)
- C=COCCCOc1ccccc1: > 100 µM (inactive)

Q. What GI50 value was documented for this compound, CC(=O)Oc1ccc2c(=O)c(C(C)=O)coc2c1 ?
A. > 100 µM (inactive)

====

- Tested on: SF-268
- ASSAY SUMMARY: NCI tumour cell line growth inhibition, 48 h
The source made the active and inactive calls. Rule as the data show it: active = GI50 up to about 1.1 µM and inactive = higher. *1 amine or outer side, *2 acyl side, *3 side chain or, on linkers, in order; H or OH if unused. Where a SMILES comes first, the peptide text is derived from it. Bridges are numbered along the chain shown (N, C = ends). Roman numbers before positions name the chains, in order. [ ]: non-standard residue; d: D form. Actinocin(9to1) = Cc1c2oc3c(C)ccc(C(=O)[*:1])c3nc-2c(C(=O)[*:2])c(N)c1=O; NMeV = CN[CH](C(=O)O)C(C)C; Sar = CNCC(=O)O
Thanks in advance; please answer with one of these: active, inactive

Observe how each entry below is paired with its result.
* Cc1c2oc3c(C)ccc(C(=O)NC4C(=O)NC(Cc5ccccc5)C(=O)N5CCCC5C(=O)N(C)CC(=O)N(C)C(C(C)C)C(=O)OC4C)c3nc-2c(C(=O)NC2C(=O)NC(Cc3ccccc3)C(=O)N3CCCC3C(=O)N(C)CC(=O)N(C)C(C(C)C)C(=O)OC2C)c(N)c1=O (configuration not stated) (I: TFP[Sar][NMeV] / II: TFP[Sar][NMeV]; ester I:1-I:C, II:1-II:C; linker I:N-II:N via Actinocin(9to1); configuration not given here) | active
* O=C1C(c2ccc([N+](=O)[O-])cc2)=[N+]([O-])c2ccc([N+](=O)[O-])cc21 | inactive
* CCOC(=O)/C=C(\C(=O)OCC)n1cc(Cl)c(=O)n(CC(=O)OCC)c1=O | inactive
* CN1C(=O)CC2(C)c3cc(O)ccc3N(C)C12 (configuration not stated) | inactive
* CC1=NN(c2cccc(Cl)c2)C2(SCC(=O)N2c2nc3ccccc3s2)/C1=C\c1ccccc1O (configuration not stated) | inactive

Next, consider the following molecule.
Q. Test call, this molecule: O=c1c2ccccc2[nH]n1Cc1ccccc1
A. inactive
